Ref: PubChem BioAssay AID1053199

System Under Test: Methionine--tRNA ligase, mitochondrial (Homo sapiens) (UniProt Q96GW9)
Sequence (Q96GW9 whole entry, looked up): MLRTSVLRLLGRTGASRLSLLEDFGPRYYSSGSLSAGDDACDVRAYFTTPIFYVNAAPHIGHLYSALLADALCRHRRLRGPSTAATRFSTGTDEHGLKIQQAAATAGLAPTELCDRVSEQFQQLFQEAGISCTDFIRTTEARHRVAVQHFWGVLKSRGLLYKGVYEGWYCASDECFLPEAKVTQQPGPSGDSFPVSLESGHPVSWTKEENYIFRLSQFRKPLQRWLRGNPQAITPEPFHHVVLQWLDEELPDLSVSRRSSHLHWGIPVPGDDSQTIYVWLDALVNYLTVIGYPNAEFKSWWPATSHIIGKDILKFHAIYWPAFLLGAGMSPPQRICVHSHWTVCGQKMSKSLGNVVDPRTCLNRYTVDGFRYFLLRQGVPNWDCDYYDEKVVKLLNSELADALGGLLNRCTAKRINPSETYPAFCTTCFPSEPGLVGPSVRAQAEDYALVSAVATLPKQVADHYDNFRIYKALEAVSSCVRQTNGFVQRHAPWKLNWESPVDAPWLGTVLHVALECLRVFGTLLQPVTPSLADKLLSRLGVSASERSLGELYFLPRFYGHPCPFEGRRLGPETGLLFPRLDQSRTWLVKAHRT
Assay Method Text: human mitochondrial MetRS inhibition, late-stage follow-up, selectivity assay for T. brucei MetRS inhibitor project, biochemical, radioactivity, round 3 (AID 1053199)
Test Conditions: recombinant human mitochondrial MetRS, [3H]Met aminoacylation; inhibition; at 1 µM; stronger effect = higher value
Let's look at some molecules and their measured inhibition.
Entry rule: numbers only, all in %.

CCN(CC)C(=O)C(=O)c1cn(CCNc2cccc(C(F)(F)F)c2)c2ccccc12: -5.12
Nc1c(Cl)ncnc1Nc1ccc(C(=O)O)cc1: 2.59
O=C(Cc1ccc(Nc2nc3ccc(Br)cc3[nH]2)cc1)NCCc1cccs1: 5.12
CCN(CC)C(=O)Cc1cn(CC(=O)Nc2cccc(C(F)(F)F)c2)c2ccccc12: -8.45
CCN(CC)C(=O)C(=O)c1cn(CC(=O)Nc2cc(Oc3ccc(OC)cc3)cc(C(F)(F)F)c2)c2ccccc12: -4.97

INPUT: Query for Methionine--tRNA ligase, mitochondrial (Homo sapiens) (UniProt Q96GW9): what inhibition does the record show for `CCN(CC)C(=O)C(=O)c1cn(CCNc2cc(Oc3ccccc3)cc(C(F)(F)F)c2)c2ccccc12` ?
OUTPUT: -2.31

INPUT: Here is the next molecule: `CCN(CC)C(=O)C(=O)c1cn(CC(=O)Nc2cc(Oc3ccc(F)cc3)cc(C(F)(F)F)c2)c2ccccc12`
OUTPUT: -2.44

INPUT: Here is the next molecule: `CCN(CC)C(=O)C(=O)c1cn(CC(=O)Nc2cc(Oc3ccccc3OC)cc(C(F)(F)F)c2)c2ccccc12`
OUTPUT: -6.59

INPUT: Here is the next molecule: `O=C(Cn1cc(C(=O)C(=O)NCc2ccccc2)c2ccccc21)Nc1cc(Oc2ccccc2)cc(C(F)(F)F)c1`
OUTPUT: -1.57

INPUT: Here is the next molecule: `CCN(CC)C(=O)C(=O)c1cn(CC(=O)Nc2cc(Oc3ccccc3F)cc(C(F)(F)F)c2)c2ccccc12`
OUTPUT: -5.27
